# experiment description: gradient 5% acetonitrile 3 min, to 50% in 2 min, to 85% in 15 min, held 3 min, 100 µL/min
# study conditions: column: Zorbax Extend-C18 2.1 x 50 mm; eluents: water / acetonitrile, 0.1% formic acid
Is RP-LC retention time at least 800 s? Then Y. If not, N.

Study these solved cases before continuing.
INSERT INTO assay_data (compound, label_class) VALUES
  ('CC(C)N1C(=O)c2cccnc2Sc2cc(NC(=O)c3ccoc3)ccc21', 'N'),
  ('O=C(Cn1c(=O)cc(C(=O)N2CCCC2)c2ccccc21)Nc1cc(F)ccc1F', 'N'),
  ('COc1ccc(OC)c(S(=O)(=O)N2CCN(c3ccccn3)CC2)c1', 'N'),
  ('Nc1c(CC(=O)O)cccc1C(=O)c1ccc(Br)cc1', 'Y'),
  ('O=c1n(Cc2c(F)cccc2Cl)nc2ccc(S(=O)(=O)N3CCCCCC3)cn12', 'Y');

stdin: Quick check: does `NC(=O)C1CCN(C(=O)CSc2nc3ccccc3s2)CC1` have RP-LC retention time greater than or equal to 800 s?
stdout: N

stdin: Quick check: does `C[C@H]1CN(C(=O)c2nn(C)c3ccccc23)C[C@@H]1c1nc(-c2cccnc2)no1` have RP-LC retention time greater than or equal to 800 s?
stdout: Y

stdin: Quick check: does `Cc1ccccc1CNS(=O)(=O)c1cc2c(s1)CCN(C(=O)C1CCC1)C2` have RP-LC retention time greater than or equal to 800 s?
stdout: Y

stdin: Quick check: does `CC(C)N1C(=O)c2cccnc2Sc2cc(NC(=O)Cc3cccc(Cl)c3)ccc21` have RP-LC retention time greater than or equal to 800 s?
stdout: Y

stdin: Quick check: does CCOc1ccc(NC(=O)C2CCCN(c3nccnc3Sc3ccccc3)C2)cc1 (stereo not drawn) have RP-LC retention time greater than or equal to 800 s?
stdout: Y

stdin: Quick check: does `Cc1cc(F)ccc1NS(=O)(=O)c1cc2n(c1)CCN(CC(C)C)C2=O` have RP-LC retention time greater than or equal to 800 s?
stdout: Y

stdin: Quick check: does CCC(C(=O)N1CCN(c2cc(-c3ccc(Cl)cc3)[nH]n2)CC1)c1ccccc1 (stereo not drawn) have RP-LC retention time greater than or equal to 800 s?
stdout: Y

stdin: Quick check: does COCCCNC(=O)C1c2ccccc2C(=O)N1Cc1ccccc1F (stereo not drawn) have RP-LC retention time greater than or equal to 800 s?
stdout: N

stdin: Quick check: does `O=C1/C(=C/c2cccnc2)Oc2cc(OCc3ccc([N+](=O)[O-])cc3)ccc21` have RP-LC retention time greater than or equal to 800 s?
stdout: Y

stdin: Quick check: does `Cc1ccc(CC(=O)NCc2c(C)noc2C)cc1` have RP-LC retention time greater than or equal to 800 s?
stdout: N

stdin: Quick check: does `Cc1sc2ccn(CC(C)C)c(=O)c2c1C(=O)N1CCN(c2ccccn2)CC1` have RP-LC retention time greater than or equal to 800 s?
stdout: N

stdin: Quick check: does CC1CCCN(S(=O)(=O)c2ccc(-n3cnc(C(=O)N4CCCCC4)c3)nc2)C1 (stereo not drawn) have RP-LC retention time greater than or equal to 800 s?
stdout: Y

stdin: Quick check: does `COc1cc(OC)cc(-c2noc(-c3nnn(Cc4nc(-c5ccccc5OC)oc4C)c3C)n2)c1` have RP-LC retention time greater than or equal to 800 s?
stdout: Y

stdin: Quick check: does `CCn1cc(C(=O)N2C[C@@H](COCC3CC3)[C@H](c3nc(C)no3)C2)cn1` have RP-LC retention time greater than or equal to 800 s?
stdout: N

stdin: Quick check: does `COc1ccc(OC)c(CCN2CC(=O)N(c3ccc(C)c(Cl)c3)[C@@H]3CS(=O)(=O)C[C@@H]32)c1` have RP-LC retention time greater than or equal to 800 s?
stdout: Y

stdin: Quick check: does `CCCNC(=O)c1ccc2c(c1)CCN2C(C)=O` have RP-LC retention time greater than or equal to 800 s?
stdout: N

stdin: Quick check: does `Cc1oc(C2CCC2)nc1C(=O)NCc1ccccc1C(F)(F)F` have RP-LC retention time greater than or equal to 800 s?
stdout: Y
